B1: DNA topoisomerase 3-alpha, residues 812 to 851; numbered along this chain, Q13472 (parent)
chain: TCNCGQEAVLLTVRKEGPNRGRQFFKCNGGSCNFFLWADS

- Variants of: B1
- protocolDetails: abundance fitness (aPCA) (normalised: wild type 0, dead -1); higher = more abundant; growth selection in yeast, the domain comes from the species named
- assayConditions: Homo sapiens
readout: abundance fitness

TCNCGQEAVLLTVRKEGPNRGRQFFKCNDGSCNFFLWADS: 0
TCNCGQEAVLLTVKKEGPNRGRQFFKCNGGSCNFFLWADS: 0.089
TCNCGQEAVLLTVRKEGPSRGRQFFKCNGGSCNFFLWADS: -0.168
TCNCGQEAVLLTVRKEGPNRGRQFFKCNGGSCNFWLWADS: -0.246
TCNCGQEMVLLTVRKEGPNRGRQFFKCNGGSCNFFLWADS: -0.172
TCNCSQEAVLLTVRKEGPNRGRQFFKCNGGSCNFFLWADS: -0.377
TCNCGQEAVLLTVMKEGPNRGRQFFKCNGGSCNFFLWADS: 0.06
TCNCGQEAVLLTVRKSGPNRGRQFFKCNGGSCNFFLWADS: -0.344
TCNCGQEAVLLTVRKEGPNRGRQFFKCNGSSCNFFLWADS: -0.304
TCNCHQEAVLLTVRKEGPNRGRQFFKCNGGSCNFFLWADS: -0.419
TCNCGQEAVLLTVRKEGPNRGRQFFKCNVGSCNFFLWADS: -0.074
TCNCGREAVLLTVRKEGPNRGRQFFKCNGGSCNFFLWADS: 0.038
TCNCGQEAVLLTVRKEGPNRGRQFFKCNGGSCNFFSWADS: 0.134
TCNCGQEAVLLKVRKEGPNRGRQFFKCNGGSCNFFLWADS: -0.347
TCNCGQEAVLLTVRKEGPNRGRQFFKCNGGSCNHFLWADS: -0.396
TCNCGQEAVLLTVRKEGPNRGRQFFKCNGGACNFFLWADS: -0.072
TCNCGQEAVLLSVRKEGPNRGRQFFKCNGGSCNFFLWADS: -0.475
TCNCGQEARLLTVRKEGPNRGRQFFKCNGGSCNFFLWADS: -0.154
TCNCAQEAVLLTVRKEGPNRGRQFFKCNGGSCNFFLWADS: -0.437
TCNCGQEAVLLTVRKTGPNRGRQFFKCNGGSCNFFLWADS: -0.13
TCNCGQEAVLLTVRKEGPNRGRQFFKCNGGSCNFPLWADS: -0.388
TCNCGQEAVLLTVRWEGPNRGRQFFKCNGGSCNFFLWADS: -0.126
TCNCLQEAVLLTVRKEGPNRGRQFFKCNGGSCNFFLWADS: -0.666
TCNCGQEAVLLTVRKEGPNRGWQFFKCNGGSCNFFLWADS: -0.629
TCNCQQEAVLLTVRKEGPNRGRQFFKCNGGSCNFFLWADS: -0.259
TCNCGQEAVLLTVRKEGPNRGRQFFKCNGGSCNFFLWALS: -0.93
TCNCGQEAVLLTVRKEGPNRGRQFFKVNGGSCNFFLWADS: -1.09
TCNCGQEAVLLTVRKEGPNRGGQFFKCNGGSCNFFLWADS: -0.565
TCNCRQEAVLLTVRKEGPNRGRQFFKCNGGSCNFFLWADS: -0.467
TCNCGQEAVLLTVRKEGPNRGTQFFKCNGGSCNFFLWADS: -0.438
TCNCGQEAVLLTVRKEGPNRGRQFFKCNGGSCNFFWWADS: -0.134
TCNCGQEAVLLTVRKEGPNRGRQFKKCNGGSCNFFLWADS: -0.413
TCNCGQEAVLLTVRKEGPNRGRQFFKCNGQSCNFFLWADS: -0.265
TCNCGQEACLLTVRKEGPNRGRQFFKCNGGSCNFFLWADS: -0.226
TCNCGQEAVLLTVRKEGMNRGRQFFKCNGGSCNFFLWADS: -0.336
TCNCGQEAVLLTVRKEGPNRGRQFFKCIGGSCNFFLWADS: 0.137
TCNCGQEAVLLTVRKEGPNRGRQFFKCNGGSCNFFLWARS: -0.838
TCNCGQESVLLTVRKEGPNRGRQFFKCNGGSCNFFLWADS: -0.369
TCNCGQEAVLLTVRKEGPNRGRQFFKCNGVSCNFFLWADS: -0.574
TCNCGQEAVLLTVRKEGPNRGRQFFKCNGGSCNFFVWADS: -0.255
TCNCGQEAGLLTVRKEGPNRGRQFFKCNGGSCNFFLWADS: -0.355
TCNCGQGAVLLTVRKEGPNRGRQFFKCNGGSCNFFLWADS: -0.221
TCNCGQEAVLLTVRDEGPNRGRQFFKCNGGSCNFFLWADS: 0.06
TCNCGQEAVLLTVRKEGPNRGRQFFVCNGGSCNFFLWADS: -0.266
TCNCGQEAVLGTVRKEGPNRGRQFFKCNGGSCNFFLWADS: 0.041
TCNCGQEAVLLTVRMEGPNRGRQFFKCNGGSCNFFLWADS: -0.066
TCNCGQEAVLLTVRKEGPNRGRQFFSCNGGSCNFFLWADS: -0.011
TCNCGQEAVLLRVRKEGPNRGRQFFKCNGGSCNFFLWADS: -0.437
TCNCGQRAVLLTVRKEGPNRGRQFFKCNGGSCNFFLWADS: -0.18
TCNCGQEAVLLTVRKEGPNEGRQFFKCNGGSCNFFLWADS: -0.039
TCNCGQEEVLLTVRKEGPNRGRQFFKCNGGSCNFFLWADS: -0.644
TCNCGQEAVLLTVRKELPNRGRQFFKCNGGSCNFFLWADS: -0.606
TCNCGQEAVLLTVRKEGPNRGRQFFKCNGGSCNFFLWPDS: -0.659
TCNCGQEAVLLTVRKEGPNRGRQFFKCTGGSCNFFLWADS: -0.043
TCNCGQEAVLLTVRKEGPNRGRQFFKCNGGCCNFFLWADS: -0.239
TCNCGQEAVLLTVRKEGPNRGRQFFKCNGGSGNFFLWADS: -1.07
TCNCGQEAVLLTVRKEGPNRGRQFFKCNGGSPNFFLWADS: -1.36
TCNCGQEAVLLTVRKEGPNRGQQFFKCNGGSCNFFLWADS: -0.623
TCNCGGEAVLLTVRKEGPNRGRQFFKCNGGSCNFFLWADS: -0.182
TCNCGQEAVLCTVRKEGPNRGRQFFKCNGGSCNFFLWADS: -0.208
TCNCGQEAVLLTVRKEPPNRGRQFFKCNGGSCNFFLWADS: -0.89
TCNCGQEAVLLTVRKEGPNRGRQFFKCNGGSCNFFLWAES: -0.105
TCNCGQERVLLTVRKEGPNRGRQFFKCNGGSCNFFLWADS: -0.543
TCNCGQEAVLLTVRKEGPNRGRQFFKCNGGSCNFFHWADS: -0.22
TCNCGQEFVLLTVRKEGPNRGRQFFKCNGGSCNFFLWADS: -1
TCNCGQEAVELTVRKEGPNRGRQFFKCNGGSCNFFLWADS: -0.168
TCNCGQEAVLLTVRKEGPNRGRGFFKCNGGSCNFFLWADS: -0.21
TCNCGQEAVLLTVRKEGPNRGRQFFKCAGGSCNFFLWADS: 0.075
TCNCGQEAVLLTVRKEGPNRGRQFFKCNGGSCNEFLWADS: -0.626
TCNCGQHAVLLTVRKEGPNRGRQFFKCNGGSCNFFLWADS: -0.142
TCNCGQEAVLLTVRKPGPNRGRQFFKCNGGSCNFFLWADS: -0.196
TCNCGQEAVLLTVRKEGPNRGRQFMKCNGGSCNFFLWADS: -0.149
TCNCGQEAVLLTVVKEGPNRGRQFFKCNGGSCNFFLWADS: -0.037
TCNCGQEAVLLTVRKEGHNRGRQFFKCNGGSCNFFLWADS: -0.353
TCNCGQEAVLLTVRKEGPNRQRQFFKCNGGSCNFFLWADS: -0.614
TCNCGQEAVLLTVRKEGPNRGRQFFKCNGGSCNFQLWADS: -0.241
TCNCGQEAVLLTVRKEGPNRGRQFFKCNGGSCWFFLWADS: -0.572
TCGCGQEAVLLTVRKEGPNRGRQFFKCNGGSCNFFLWADS: -0.739
TCNGGQEAVLLTVRKEGPNRGRQFFKCNGGSCNFFLWADS: -1.3
TCNCGQEAVLLTVGKEGPNRGRQFFKCNGGSCNFFLWADS: -0.092
TCNCGQEAVLLTVRKEGCNRGRQFFKCNGGSCNFFLWADS: -0.482
TCNCGQEAVLRTVRKEGPNRGRQFFKCNGGSCNFFLWADS: 0.049
TCNCGQEAVLVTVRKEGPNRGRQFFKCNGGSCNFFLWADS: 0.031
TCNCGQEAVLLTVRKEGPERGRQFFKCNGGSCNFFLWADS: -0.222
TCNCGQEAPLLTVRKEGPNRGRQFFKCNGGSCNFFLWADS: -0.227
TFNCGQEAVLLTVRKEGPNRGRQFFKCNGGSCNFFLWADS: -0.827
TCNCGQEAVLLTVQKEGPNRGRQFFKCNGGSCNFFLWADS: 0.001
TCNCGQEAVLLTVRKEGPNRNRQFFKCNGGSCNFFLWADS: -0.208
TCNCGQEAVLLTVRKEGPNRIRQFFKCNGGSCNFFLWADS: -0.787
TCNCKQEAVLLTVRKEGPNRGRQFFKCNGGSCNFFLWADS: -0.263
TCNCGQEAVLLTVRKEGPNRGRQFWKCNGGSCNFFLWADS: -0.123

Provenance of the data: the Human Domainome abundance scans (Beltran et al. 2025)
